- assayComment: Cytotoxicity against human Hep2 cells assessed as reduction in cell viability after 4 to 5 days by Cell-Titer Glo assay
- Type: cell-based, HEp-2
- conditionInfo: HEp-2 cells
measuredAttribute: CC50

{"columns": ["compound", "CC50"],
 "data": [
  ["C#C[C@@]1(c2ccc3c(N)ncnn23)O[C@H](CO)[C@@H](O)[C@H]1O", "> 200 µM"],
  ["CC(C)OC(=O)[C@H](C)NP(=O)(OC[C@H]1O[C@@](C#N)(n2ccc(N)nc2=O)[C@H](O)[C@@H]1O)Oc1ccccc1 (some centres undefined)", "> 100 µM"],
  ["N#C[C@@]1(n2cnc3c(N)ncnc32)O[C@H](CO)[C@@H](O)[C@H]1O", "> 100 µM"]
]}

Documented CC50 of CCC(CC)COC(=O)[C@H](C)NP(=O)(OC[C@H]1O[C@@](C#N)(c2ccc3c(N)ncnn23)[C@](C)(O)[C@@H]1O)Oc1ccccc1 (some centres undefined) : > 50 µM
